System: dopamine neurons
PROTOCOL DESCRIPTION: Survival of TH-positive dopamine neurons in dissociated midbrain floor cultures
Type: cell-based, mouse
CONDITION NOTES: Table 3A (FIG. 15), exp3, 1 ng/ml, 5 days
Hi there, I'd appreciate the recorded survived neurons as % compared to neurons grown in the presence of GDNF for every entry that follows.
Answers are plain numbers, in % GDNF.

# example entries with known answers
> print(dat)
                              sequence.text  reported.measurement
1  TLDLASVDLRKMRVAELKQILHSWGEECRACAEKTDYVNLIQELAPKYA (listed as Homo sapiens) [pep4]                 65.71
2  KYEKTLDLASVDLRKMRVAELKQILHSWGEECRACAEKTDYVNLIQELAPKYA (listed as Homo sapiens) [pep3]                 62.58
3  VDLRKMRVAELKQILHSWGEECRACAEKTDYVNLIQELAPKYAATHPKTEL (listed as Homo sapiens) [pep5]                 70.31
4  TLDLASVDLRKMRVAELKQILHSWGEECRACAEKTDYVNLIQELAPKYAATHPKTEL (listed as Homo sapiens) [pep2]                 69.28
5  VDLRKMRVAELKQILHSWGEECRACAEKTDYVNLIQELAPKYA (listed as Homo sapiens) [pep6]                 57.68

Now for another entry.
Quick one: survived neurons as % compared to neurons grown in the presence of GDNF for KYEKTLDLASVDLRKMRVAELKQILHSWGEECRACAEKTDYVNLIQELAP (listed as Homo sapiens) [pep7] ?
69.24

* * *

Tested on: dopamine neurons
PROTOCOL DESCRIPTION: Survival of TH-positive dopamine neurons in dissociated midbrain floor cultures
Format: cell-based, mouse
CONDITION NOTES: Table 3B (FIG. 17), AVG, 1 ng/ml, 5 days
Hi there, I'd appreciate the recorded survived neurons as % compared to neurons grown in the presence of GDNF for every entry that follows.
Numbers only, in % GDNF.

> print(dat)
                              sequence.text  measure.unit  reported.measurement
1  TLDLASVDLRKMRVAELKQILHSWGEESRACAEKTDYVNLIQELAPKYA (C-CDNF peptide with single amino acid substitution) [pep9]        % GDNF                 62.74
2  TLDLASVDLRKMRVAELKQILHSWGEECRACAEKTDYVNLIQEPAPKYA (Mutated C-CDNF peptide) [pep13]        % GDNF                 71.07
3  TLDLASVDLRKMRVAEPKQILHSWGEECRACAEKTDYVNLIQEPAPKYA (Mutated C-CDNF peptide) [pep14]        % GDNF                 71.49

# batch: return survived neurons as % compared to neurons grown in the presence of GDNF for each of the 4 sequences below
1. TLDLASVDLRKMRVAEPKQILHSWGEECRACAEKTDYVNLIQELAPKYA (Mutated C-CDNF peptide) [pep12]
2. TLDLASVDLRKMRVAELKQILHSWGEECRACAE (listed as Homo sapiens) [pep15]
3. RVAELKQILHSWGEECRACAEKTDYVNLIQELAPKYA (listed as Homo sapiens) [pep8]
4. TLDLASVDLRKMRVAELKQILHSWGEECRASAEKTDYVNLIQELAPKYA (C-CDNF peptide with single amino acid substitution) [pep10]

68.57
73.72
64.02
54.25

Item TLDLASVDLRKMRVAELKQILHSWGEECRARACAEKTDYVNLIQELAPKYA (Mutated C-CDNF peptide) [pep11] with dopamine neurons - survived neurons as % compared to neurons grown in the presence of GDNF?
59.60
